Kindly state Ki for each of the entries shown.
Biological target: recombinant LstiGOBP2 (Loxostege sticticalis, UniProt C6ZDA6)
Sequence (C6ZDA6 entry or part of it): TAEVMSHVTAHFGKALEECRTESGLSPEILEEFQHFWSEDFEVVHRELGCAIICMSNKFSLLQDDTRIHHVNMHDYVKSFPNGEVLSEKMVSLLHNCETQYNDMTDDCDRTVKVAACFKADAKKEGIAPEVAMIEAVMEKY
Assay: biochemical
Format: binding
Details: calculated from IC50: Ki = [IC50]/1+[1-NPN]/K1-NPN; read-out: Ki (relative dissociation constant)
Dear colleague, please return just the value in µM, with no unit written.

Report measured Ki; entry is CCCCCCCCC=O
22.9

Write down Ki measured for item O=CCc1ccccc1
11.8

Find the measured Ki of CCCCCCC=O and report it.
14.1

Recall and state the measured Ki for CC(C)=CCCC(C)O (stereo not shown) .
16.5

Provide only the value of recorded Ki for CCCCCCCO
6.2

Name the recorded Ki of the molecule listed here: C=CC(=C)CCC=C(C)C
14.7

Identify the reported Ki for the following entry. CCCCCCO
6.5

// fetch Ki given entry CC/C=C/CCCCCCCCCCOC(C)=O [Trans-11-tetradecen-1-yl acetate]
10.6

Quote Ki reported for CCCCC=O please.
8.2

Output measured Ki for this item: CC12CCC(CC1=O)C2(C)C (stereo not shown)
8.2

Name the recorded Ki of the molecule listed here: CCCCCCCC=O
14.1

Tell me its Ki given CC/C=C\CCOC(C)=O [Cis-3-hexenyl acetate] as the entry.
17.1

Output measured Ki for this item: CCC/C=C/COC(C)=O [Trans-2-hexenyl acetate]
16.5

----------
Target: recombinant LstiGOBP2 (Loxostege sticticalis)
Test: biochemical
Type: binding
Settings: at ligand concentration 20 µM; protein 2 µM, 1-NPN probe; read-out: Int (fluorescence intensity as percent of the initial fluorescence)
Note to self: class labels come from recorded activity at 20 µM, ranges listed here: bin 0 (below 50%), bin 1 (50% to below 60%), bin 2 (60% or more)

Dear colleague, I would appreciate it if you could identify the bin for CC/C=C\CCOC(C)=O [Cis-3-hexenyl acetate] and reply at your convenience.
bin 1

# bin lookup: classify CCCCCCCCC=O [1-Nonanal] by its activity at 20 µM
bin 2

Given C=CC(C)(O)CCC=C(C)C (single isomer, unassigned; (-)) [(-)-Linalool] , name the class its activity at 20 µM places it in.
bin 1

Pick a category. Item: CC(C)=CCCC(C)O (centres unmarked) [6-Methyl-5-hepten-2-ol]
bin 2

Hey, which category is CCCCC=O [1-Pentanal] in, do you know?
bin 0

State the band of C=CC(=C)CCC=C(C)C [Myrcene]
bin 1

State the band of CCCCCCCC=O [1-Octanal]
bin 1

Field: class (activity at 20 µM) — entry: CC/C=C/CCCCCCCCCCOC(C)=O [Trans-11-tetradecen-1-yl acetate]
bin 0

For the record CC=CCCCO [4-Hexen-1-ol] , report the class its activity at 20 µM corresponds to.
bin 1

----------
Assignment: determine reported pIC50 for the given compounds.
Target: recombinant LstiGOBP2 (Loxostege sticticalis, UniProt C6ZDA6)
Assay: biochemical
Assay type: binding
Conditions: IC50 (concentration of ligand halving the initial fluorescence intensity), protein 2 µM, 1-NPN probe, ligand titrated to 2–50 µM in methanol
Scale for pIC50: -log10 of concentration given in mol/L; no unit attached.

Hello, please tell me recorded pIC50 for this one: O=C/C=C/c1ccccc1 [Cinnamaldehyde]
4.77

Tell me measured pIC50 for CC(=O)/C=C/C1C(C)=CCCC1(C)C (stereo not drawn) [α-ionone] please.
5.10

In one line, give reported pIC50 of the entry CC(C)=CCC/C(C)=C/CO [Geraniol] .
4.66

Input CC(=O)CCC=C(C)C [6-Methyl-5-hepten-2-one] , output reported pIC50.
4.55

Using known records, supply pIC50 for O=Cc1ccccc1 [Benzaldehyde]
4.72

Provide measured pIC50 value, entry: CC(=O)/C=C/C1=C(C)CCCC1(C)C [β-ionone]
4.96

----------
Target: recombinant LstiGOBP2 (Loxostege sticticalis)
Experiment: biochemical
Type: binding
Conditions: competitive displacement of 1-NPN
value-kind: binding to LstiGOBP2 (in words)

>  <compound>
CCC/C=C/C=O [Trans-2-hexenal]

>  <test-target>
recombinant LstiGOBP2 (Loxostege sticticalis)

>  <binding to LstiGOBP2 (in words)>
high binding affinities

$$$$
>  <compound>
CCCCC=O [1-Pentanal]

>  <test-target>
recombinant LstiGOBP2 (Loxostege sticticalis)

>  <binding to LstiGOBP2 (in words)>
high affinities

$$$$
>  <compound>
CC1=CC[C@H](C(C)C)C=C1 [α-Phellandrene]

>  <test-target>
recombinant LstiGOBP2 (Loxostege sticticalis)

>  <binding to LstiGOBP2 (in words)>
do not show affinities

$$$$
>  <compound>
CC/C=C\CCO [Cis-3-hexen-1-ol]

>  <test-target>
recombinant LstiGOBP2 (Loxostege sticticalis)

>  <binding to LstiGOBP2 (in words)>
high binding affinities

$$$$
>  <compound>
CC(=O)/C=C/C1=C(C)CCCC1(C)C [β-ionone]

>  <test-target>
recombinant LstiGOBP2 (Loxostege sticticalis)

>  <binding to LstiGOBP2 (in words)>
strongest affinities

$$$$
>  <compound>
CCCCCC=O [1-Hexanal]

>  <test-target>
recombinant LstiGOBP2 (Loxostege sticticalis)

>  <binding to LstiGOBP2 (in words)>
high affinities

$$$$

Determine from records and report binding to LstiGOBP2 (in words) for CC(=O)/C=C/C1C(C)=CCCC1(C)C (stereo not drawn) [α-ionone]
strongest affinities

Output binding to LstiGOBP2 (in words) of C=C(C)[C@H]1CC=C(C)CC1 [R-(+)-Limonene]
do not show affinities

----------
Target: recombinant LstiGOBP2 (Loxostege sticticalis)
Experiment: biochemical
Type: binding
value-kind: IC50 (µM)
Lab book: enter the figure in µM, no units written.

Quick one: give measured IC50 for CCCCCCO
11

Supply measured IC50 of CCCCCCCO in your reply.
10.5

Supply IC50 value. Item: c1ccc2scnc2c1
22

Find the measured IC50 of CCCCCC=O and report it.
12.5

Give me measured IC50, please, for this molecule: CC(C)(C)c1ccc(O)c(C(C)(C)C)c1
20

Please give measured IC50 of the following entry: CCCCCCC=O
24

Answer with reported IC50 of CC/C=C\CCO [Cis-3-hexen-1-ol]
19

----------
Target: recombinant LstiGOBP2 (Loxostege sticticalis, UniProt C6ZDA6)
Test: biochemical
Type: binding
Settings: protein 2 µM, 1-NPN probe, ligand titrated to 2–50 µM in methanol; read-out: IC50 (concentration of ligand halving the initial fluorescence intensity)
value-kind: IC50
Please format your answer as a value with the unit trailing.

Quick one: give measured IC50 for C=CC(=C)CCC=C(C)C [Myrcene]
25 µM

Answer with the recorded IC50 of O=CCc1ccccc1 [Phenyl acetaldchyde] only.
20 µM

Read off the recorded IC50 for C=C1C2CCC(C2)C1(C)C (stereo not shown) [Camphene]
23 µM

Quick one: give measured IC50 for CCCCCCCC=O [1-Octanal]
24 µM

Indicate the recorded IC50 value for this molecule: CCC/C=C/COC(C)=O [Trans-2-hexenyl acetate]
28 µM

Identify the reported IC50 for the following entry. CC(C)=CCCC(C)O (stereo not shown) [6-Methyl-5-hepten-2-ol]
28 µM

Respond only with IC50 recorded for CCCCCCCCC=O [1-Nonanal]
39 µM

Return value of IC50 for input CC/C=C\CCOC(C)=O [Cis-3-hexenyl acetate] , no commentary.
29 µM

Please report IC50 for the following molecule: CC/C=C/CCCCCCCCCCOC(C)=O [Trans-11-tetradecen-1-yl acetate]
18 µM

Specify reported IC50 for the molecule shown: CCCCC=O [1-Pentanal]
14 µM

----------
Target: recombinant LstiGOBP2 (Loxostege sticticalis)
Assay: biochemical
Assay type: binding
Details: read-out: Int (fluorescence intensity as percent of the initial fluorescence)
Response key: fulfilled means activity at 20 µM >= 50%; not fulfilled means activity at 20 µM < 50%.

Answer whether activity at 20 µM of CCCCCCO [1-Hexanol] is greater than or equal to 50%.
not fulfilled

Please tell me: is the compound c1ccc2scnc2c1 [Benzothiazole] at or over 50% in terms of activity at 20 µM?
fulfilled

Please tell me: is the compound CCCCCCC=O [1-Heptanal] at or over 50% in terms of activity at 20 µM?
fulfilled

Evaluate C=C1CC/C=C(\C)CC[C@@H]2[C@@H]1CC2(C)C [(-)-Trans-caryophyllene] : activity at 20 µM at minimum 50%?
fulfilled

Reported activity at 20 µM at or above 50%? C=C1C2CCC(C2)C1(C)C (centres unmarked) [Camphene]
fulfilled

Tell me whether activity at 20 µM is at least 50% here: CCCCCC=O [1-Hexanal]
not fulfilled

Is activity at 20 µM at least 50%? Consider COC(=O)c1ccccc1O [Methyl salicylate]
fulfilled

Is it the case that CC12CCC(CC1=O)C2(C)C (centres unmarked) [Camphor] has activity at 20 µM reaching or exceeding 50%?
not fulfilled

Evaluate CCCCCCCO [1-Heptanol] : activity at 20 µM at minimum 50%?
not fulfilled

Where these numbers come from: paper PMC3316592
